Organism: Rattus norvegicus
Assay: Compound was tested for the cardiovascular activity in isolated rat heart. Value represents the concentration producing 25% increase in LV + dP/dtmax; NA indicates not active
Format: functional
Active and inactive are the calls of the source. No cut-off for these calls is given here.

# compound, EC25
records = [
    ("CCO/C(O)=C1\\C(C[S+]([O-])c2ccncc2)=NC(C)=C(C#N)C1c1ccccn1 (stereo unspecified)", "inactive"),
    ("CC1=C(C#N)C(c2ccccc2C(F)(F)F)/C(=C(\\O)OCCN2CCCCC2)C(C[S+]([O-])c2ccccc2)=N1 (stereo unspecified)", "inactive"),
    ("CCO/C(O)=C1\\C(C[S+]([O-])c2ccc(OC)cc2)=NC(C)=C(C#N)C1c1ccccc1C(F)(F)F (stereo unspecified)", "inactive"),
    ("CCO/C(O)=C1\\C(CS(=O)(=O)c2ccc(Cl)cc2)=NC(C)=C(C#N)C1c1ccccc1C(F)(F)F (stereo unspecified)", "inactive"),
    ("CC1=C(C#N)C(c2ccccc2C(F)(F)F)/C(=C(\\O)OC(C)C)C(C[S+]([O-])c2ccccc2)=N1 (stereo unspecified)", "inactive"),
    ("CCO/C(O)=C1\\C(CS(=O)(=O)c2ccncc2)=NC(C)=C(C#N)C1c1ccccn1 (stereo unspecified)", "inactive"),
]

====

Biological target: Voltage-gated L-type calcium channel (Rattus norvegicus, UniProt P22002+Q02485+P27732)
Assay: Affinity to bind dihydropyridine receptor (DHP receptor) by inhibiting the radioligand [3H]nitrendipine
Type: protein assay

# compound, unitAnnotation, resultQualifier, IC50
measured = [
    ("CCO/C(O)=C1\\C(C[S+]([O-])c2ccc(Cl)c(Cl)c2)=NC(C)=C(C#N)C1c1ccccc1C(F)(F)F (centres undefined)", "nM", "=", 681),
    ("CCO/C(O)=C1\\C(C[S+]([O-])c2ccc(OC)cc2)=NC(C)=C(C#N)C1c1ccccc1C(F)(F)F (centres undefined)", "nM", "=", 1200),
    ("C=CCO/C(O)=C1\\C(CS(=O)(=O)c2ccccc2)=NC(C)=C(C#N)C1c1ccccc1C(F)(F)F (centres undefined)", "nM", "=", 580),
    ("CCO/C(O)=C1\\C(CS(=O)(=O)c2ccccc2Cl)=NC(C)=C(C#N)C1c1ccccc1C(F)(F)F (centres undefined)", "nM", ">", 500),
    ("CCCCc1ccc(SCC2=NC(C)=C(C#N)C(c3ccccc3C(F)(F)F)/C2=C(\\O)OCC)c(C)c1 (centres undefined)", "nM", ">", 1000),
    ("CC1=C(C#N)C(c2ccccc2C(F)(F)F)/C(=C(\\O)OCCN(C)Cc2ccccc2)C(C[S+]([O-])c2ccccc2)=N1 (centres undefined)", "nM", ">", 1000),
    ("CCO/C(O)=C1\\C(C[S+]([O-])c2ccncc2)=NC(C)=C(C#N)C1c1ccccn1 (centres undefined)", "nM", ">", 1000),
    ("CCO/C(O)=C1\\C(CSc2ccccn2)=NC(C)=C(C#N)C1c1ccccc1C(F)(F)F (centres undefined)", "nM", ">", 1000),
    ("CCO/C(O)=C1\\C(CS(=O)(=O)c2ccccc2)=NC(C)=C(C#N)C1c1cccnc1 (centres undefined)", "nM", ">", 1000),
    ("CCO/C(O)=C1\\C(C[S+]([O-])c2ccncc2)=NC(C)=C(C#N)C1c1ccccc1C(F)(F)F (centres undefined)", "nM", "=", 1100),
    ("CCO/C(O)=C1\\C(CS(=O)(=O)c2ccccc2)=NC(C)=C(C#N)C1C1CCCCC1 (centres undefined)", "nM", ">", 1000),
    ("CC1=C(C#N)C(c2ccccc2C(F)(F)F)/C(=C(\\O)OC(C)C)C(C[S+]([O-])c2ccccc2)=N1 (centres undefined)", "nM", "=", 500),
    ("CCO/C(O)=C1\\C(CSc2ccncc2)=NC(C)=C(C#N)C1c1ccccc1C(F)(F)F (centres undefined)", "nM", "=", 1000),
    ("CCO/C(O)=C1\\C(C[S+]([O-])c2ccccc2C)=NC(C)=C(C#N)C1c1ccccc1C(F)(F)F (centres undefined)", "nM", ">", 1000),
    ("CC1=C(C#N)C(c2ccccc2C(F)(F)F)/C(=C(\\O)OCCN2CCOCC2)C(C[S+]([O-])c2ccccc2)=N1 (centres undefined)", "nM", ">", 1000),
    ("CCOC(=O)C1=C(C)N=C(CSc2ccncc2)/C(=C(/O)OCC)C1c1ccccc1C(F)(F)F (centres undefined)", "nM", "=", 32.5),
    ("CCO/C(O)=C1\\C(CSc2ccccc2)=NC(C)=C(C#N)C1c1cccc([N+](=O)[O-])c1 (centres undefined)", "nM", "=", 870),
    ("CCO/C(O)=C1\\C(CSc2ccccc2C)=NC(C)=C(C#N)C1c1ccccc1C(F)(F)F (centres undefined)", "nM", ">", 1000),
    ("CC1=C(C#N)C(c2ccccc2C(F)(F)F)C(C(=O)O)=C(CSc2ccccc2)N1 (centres undefined)", "nM", ">", 1000),
    ("CCO/C(O)=C1\\C(C[S+]([O-])c2ccccc2)=NC(C)=C(C#N)C1c1ccccc1 (centres undefined)", "nM", ">", 1000),
    ("C=CCO/C(O)=C1\\C(CSc2ccccc2)=NC(C)=C(C#N)C1c1ccccc1C(F)(F)F (centres undefined)", "nM", "=", 580),
    ("CCOC(=O)C1=C(C[S+]([O-])c2ccccc2)NC(C)=C(C#N)C1c1ccccc1C(F)(F)F (stereo in doubt; 29b)", "nM", "=", 2800),
    ("CCOC(=O)C1=C(C[S+]([O-])c2ccccc2)N(CCN(CC)CC)C(C)=C(C#N)C1c1ccccc1C(F)(F)F (centres undefined)", "nM", ">", 1000),
    ("CC1=C(C#N)C(c2ccccc2C(F)(F)F)/C(=C(\\O)OC(C)C)C(CSc2ccccc2)=N1 (centres undefined)", "nM", "=", 250),
    ("CCO/C(O)=C1\\C(CSc2ccc(NC(C)=O)cc2)=NC(C)=C(C#N)C1c1ccccc1C(F)(F)F (centres undefined)", "nM", "=", 205),
    ("CCO/C(O)=C1\\C(CSc2ccccc2)=NC(C)=C(C#N)C1c1ccccn1 (centres undefined)", "nM", ">", 1000),
    ("CCO/C(O)=C1\\C(CSc2ccc(Cl)c(Cl)c2)=NC(C)=C(C#N)C1c1ccccc1C(F)(F)F (centres undefined)", "nM", "=", 69),
    ("CCO/C(O)=C1\\C(CS(=O)(=O)c2ccc(Cl)cc2)=NC(C)=C(C#N)C1c1ccccc1C(F)(F)F (centres undefined)", "nM", "=", 91),
    ("CCOC(=O)C1=C(C)N=C(C[S+]([O-])c2ccccc2)/C(=C(/O)OCC)C1c1ccccc1C(F)(F)F (centres undefined)", "nM", "=", 27),
    ("CCO/C(O)=C1\\C(CS(=O)(=O)c2ccccc2)=NC(C)=C(C#N)C1c1cccc([N+](=O)[O-])c1 (centres undefined)", "nM", "=", 300),
    ("CCO/C(O)=C1\\C(CSc2ccccc2)=NC(C)=C(C#N)C1c1ccco1 (centres undefined)", "nM", "=", 1354),
    ("CCO/C(O)=C1\\C(CS(=O)(=O)c2ccncc2)=NC(C)=C(C#N)C1c1ccccc1Cl (centres undefined)", "nM", "=", 713),
    ("CCOC(=O)C1=C(CSc2ccccc2)N(CCN(CC)CC)C(C)=C(C#N)C1c1ccccc1C(F)(F)F (centres undefined)", "nM", "=", 1000),
    ("CCO/C(O)=C1\\C(C[S+]([O-])c2ccccc2)=NC(C)=C(C#N)C1c1ccccn1 (centres undefined)", "nM", ">", 1000),
]
